Each recorded value in this set is attributed to patent US12686690B2.

target: hOX2R (Homo sapiens); assay: hOX2R IPone assay (orexin receptor agonism); conditions: orexin receptor agonist, IPone readout; read-out: hOX2R_IPone EC50
Sequence (O43614 whole entry): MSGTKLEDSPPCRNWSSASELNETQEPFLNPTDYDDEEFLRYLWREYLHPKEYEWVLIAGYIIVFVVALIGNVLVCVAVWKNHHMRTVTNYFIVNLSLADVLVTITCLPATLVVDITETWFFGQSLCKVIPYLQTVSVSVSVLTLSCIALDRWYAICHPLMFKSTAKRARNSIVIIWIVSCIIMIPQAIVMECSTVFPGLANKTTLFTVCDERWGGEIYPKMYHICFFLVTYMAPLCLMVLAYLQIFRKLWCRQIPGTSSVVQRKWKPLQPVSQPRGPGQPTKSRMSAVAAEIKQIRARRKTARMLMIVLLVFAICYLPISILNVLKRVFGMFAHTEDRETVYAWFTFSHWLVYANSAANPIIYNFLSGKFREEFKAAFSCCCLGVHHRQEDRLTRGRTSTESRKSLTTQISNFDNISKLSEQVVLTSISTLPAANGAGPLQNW
Assay readout: EC50 (nM)

1. CCN1C(=O)NC(C)/C=C/CC(F)(F)COc2cn3ccnc3c(n2)-c2cc(ncc2OC)[C@H]1C (stereo partly shown) [Example 220]    12.1
2. CCN1C(=O)N[C@@H](CCC(F)(F)F)CCCCCCOc2nc(cn3ccnc23)-c2cc(ncc2OC)[C@H]1C [Example 109]    1.5
3. CCN1C(=O)NC(C)CCCCCOc2nc(cn3ccnc23)-c2cc(ncc2OC)[C@H]1C (single isomer, unassigned) [Example 9B]    6
4. CCN1C(=O)NC(c2csc(C)n2)CCCCCOc2nc(cn3ccnc23)-c2cc(cnc2OC)C1C (stereo not shown) [Example 215]    3.56
5. CCN1C(=O)NC(CCCC(F)F)CCCCCOc2nc(cn3ccnc23)-c2cc(ncc2OC)[C@H]1C (stereo partly shown) [Example 184]    0.78

I: CCN1C(=O)N[C@@H](CCC(F)(F)F)CCCCOc2nc(cn3cc(C)nc23)-c2cc(ncc2OC)C1C(F)(F)F (single isomer, unassigned) [Example 36A]
II: CCN1C(=O)N[C@@H](CCC(F)(F)F)CCCCCOc2nc(cn3ccnc23)C2=C(C3CC3)N=C(O2)[C@H]1C [Example 211]
In: Recorded EC50 values differ for I and II ; which one is higher? Refer to your chosen item by its label in the answer.
Out: I
